target_under_test: Ba/F3 cells, ABL1 T315I (Homo sapiens, UniProt P00519, T315I, cells depend on it)
run_description: 96-well XTT cell survival assay, Ba/F3 ABL1 T315I
Assay type: cell-based
experimental_setup: 72 hours, read-out: ABL1 T315I XTT [Ba/F3] IC50
quantity_name: GI50

The following molecules have reported results that may help.
>>> result_value("COc1ccccc1-c1c[nH]c2ncc(-c3cncc(C(O)C(=O)N(C)Cc4ccnn4C)c3)cc12 (stereo not drawn)")
"< 1 µM"
>>> result_value("COc1ccccc1-c1c[nH]c2ncc(-c3ccnc(C(O)C(=O)N(C)C)n3)cc12 (stereo not drawn)")
"> 1 µM"
>>> result_value("CN(C)C(=O)C(O)c1cncc(-c2cnc3[nH]cc(-c4ccc(Cl)cc4)c3c2)c1 (stereo not drawn)")
"> 1 µM"
>>> result_value("COc1ccccc1-c1n[nH]c2ncc(-c3cccc(C(O)C(=O)N4CCC(O)CC4)c3)cc12 (stereo not drawn)")
"> 1 µM"
>>> result_value("COc1ccccc1-c1n[nH]c2ncc(-c3cccc(C(O)C(=O)N(C)C)n3)cc12 (stereo not drawn)")
"> 1 µM"
>>> result_value("COc1ccccc1-c1n[nH]c2ncc(-c3cccc(C(O)c4ncccc4F)c3)cc12 (stereo not drawn)")
"< 1 µM"
>>> result_value("COc1ccccc1-c1n[nH]c2ncc(-c3cccc([C@@H](C)O)c3)cc12")
"< 1 µM"
>>> result_value("COc1ccccc1-c1n[nH]c2ncc(-c3cccc(C(N)C(=O)N4CC(O)C4)c3)cc12 (stereo not drawn)")
"> 1 µM"

**Q:** # value lookup — system Ba/F3 cells, ABL1 T315I (Homo sapiens, UniProt P00519, T315I, cells depend on it), readout GI50, item COc1ccccc1-c1c[nH]c2ncc(-c3cccc(C(N)CC(=O)N(C)C)c3)cc12 (stereo not drawn)
**A:** > 1 µM

###

target_under_test: Ba/F3 cells, ABL1 WT (Homo sapiens)
run_description: 96-well XTT cell survival assay, Ba/F3 ABL1 WT
Format: cell-based
experimental_setup: 72 hours, read-out: ABL1 WT XTT [Ba/F3] IC50
// GI50 lookup, one value per entry

**Q:** Param item = CN(C)C(=O)C(O)c1cncc(-c2cnc3[nH]cc(-c4ccc(C(N)=O)cc4)c3c2)c1 (stereo not drawn) ; retrieve measured GI50.
**A:** > 1 µM

**Q:** Returns the measured GI50 for the input molecule. Input: COc1ccccc1-c1c[nH]c2ncc(-c3cccc(C(O)C(=O)N(C)C)n3)cc12 (stereo not drawn)
**A:** > 1 µM

**Q:** Looking for the measured GI50 of "COc1ccccc1-c1n[nH]c2ncc(-c3cccc([C@H](O)[C@H](O)C(C)C)c3)cc12" , can you help?
**A:** < 1 µM

**Q:** What value of GI50 has been reported for the following molecule? CN(C)C(=O)C(O)c1cncc(-c2cnc3[nH]cc(-c4ccc(N(C)C)cc4)c3c2)c1 (stereo not drawn)
**A:** > 1 µM

**Q:** Fill in the blank: the reported GI50 of COc1ccccc1-c1c[nH]c2ncc(-c3cccc(C(O)C(=O)N(C)CCN(C)C)c3)cc12 (stereo not drawn) is ____.
**A:** < 1 µM

**Q:** Record request: GI50 value, item COc1ccccc1-c1n[nH]c2ncc(-c3cccc(C(O)C(=O)N4CC(O)C4)c3)cc12 (stereo not drawn)
**A:** > 1 µM

**Q:** Return reported GI50; argument: COc1ccccc1-c1c[nH]c2ncc(-c3cccc(C(N)C(=O)N(C)CCN(C)C)c3)cc12 (stereo not drawn)
**A:** > 1 µM

**Q:** # lookup: GI50 of CCN(CC)CCN(CC)C(=O)C(O)c1cccc(-c2cnc3[nH]nc(-c4ccccc4OC)c3c2)c1 (stereo not drawn)
**A:** < 1 µM

**Q:** Field request: GI50 | item: COC[C@H]1CCCN1C(=O)C(O)c1cccc(-c2cnc3[nH]nc(-c4ccccc4OC)c3c2)c1 (stereo partly drawn)
**A:** < 1 µM

###

target_under_test: Ba/F3 cells, ABL1 WT (Homo sapiens)
run_description: 96-well XTT cell survival assay, Ba/F3 ABL1 WT
Type: cell-based
experimental_setup: 72 hours, read-out: ABL1 WT XTT [Ba/F3] IC50
The entries below come with measured GI50 values attached.

Guide cases for GI50, answers given:
>>> result_value("Cc1n[nH]c(C)c1-c1c[nH]c2ncc(-c3cncc(C(O)C(=O)N(C)C)c3)cc12 (stereo not drawn)")
"> 1 µM"
>>> result_value("COc1ccccc1-c1n[nH]c2ncc(-c3cccc(C(C)C(=O)N4CC(O)C4)c3)cc12 (stereo not drawn)")
"> 1 µM"
>>> result_value("COc1ccccc1-c1c[nH]c2ncc(-c3cccc(C(C(=O)N(C)CCN(C)C)N4CCNCC4)c3)cc12 (stereo not drawn)")
"> 1 µM"
>>> result_value("COc1ccccc1-c1n[nH]c2ncc(-c3cccc(C(O)c4nccn4C)c3)cc12 (stereo not drawn)")
"< 1 µM"
>>> result_value("Cc1n[nH]cc1-c1c[nH]c2ncc(-c3cncc(C(O)C(=O)N(C)C)c3)cc12 (stereo not drawn)")
"> 1 µM"

**Q:** Which GI50 reading was recorded for the compound COc1ncccc1-c1c[nH]c2ncc(-c3cncc(C(O)C(=O)N(C)C)c3)cc12 (stereo not drawn) ?
**A:** < 1 µM

**Q:** Look up GI50: COc1ccccc1-c1c[nH]c2ncc(-c3cccc(C(C(=O)N4CCC[C@@H]4CO)N4CCNCC4)c3)cc12 (stereo partly drawn)
**A:** > 1 µM

**Q:** # GI50 lookup, item CN(C)C(=O)C(O)c1cncc(-c2cnc3[nH]cc(-c4ccc(Cl)c(Cl)c4)c3c2)c1 (stereo not drawn)
**A:** > 1 µM

**Q:** Returns the measured GI50 for the input compound. Input: COc1ccccc1-c1c[nH]c2ncc(-c3ccnc(C(O)C(=O)N(C)C)c3)cc12 (stereo not drawn)
**A:** > 1 µM

###

target_under_test: Ba/F3 cells, ABL1 WT (Homo sapiens, UniProt P00519)
run_description: 96-well XTT cell survival assay, Ba/F3 ABL1 WT
Assay type: cell-based
experimental_setup: 72 hours, read-out: ABL1 WT XTT [Ba/F3] IC50
quantity_name: GI50

>>> result_value("CN(C)C(=O)C(O)c1cncc(-c2cnc3[nH]cc(-c4ccno4)c3c2)c1 (stereo not drawn)")
"> 1 µM"

**Q:** For the compound CNC(C(=O)N(C)C)c1cccc(-c2cnc3[nH]nc(-c4ccccc4OC)c3c2)c1 (stereo not drawn) , what GI50 is on record?
**A:** > 1 µM

**Q:** Give the measured GI50 of COc1ccccc1-c1n[nH]c2ncc(-c3cccc(C(O)C(=O)N(C)CC#N)c3)cc12 (stereo not drawn) .
**A:** < 1 µM

**Q:** Entry "COc1ccccc1-c1n[nH]c2ncc(-c3cccc(CO)n3)cc12" has what GI50?
**A:** < 1 µM

**Q:** Data request, read-out GI50, for COc1ccccc1-c1n[nH]c2ncc(-c3cccc(C(O)C(=O)N(C)C)n3)cc12 (stereo not drawn)
**A:** > 1 µM

**Q:** Give the measured GI50 of COc1ccccc1-c1c[nH]c2ncc(-c3cccc(C4NC(=O)NC(C)=C4C(=O)N(C)C)c3)cc12 (stereo not drawn) .
**A:** > 1 µM

**Q:** Would you mind telling me what GI50 value was observed for COc1ccccc1-c1n[nH]c2ncc(-c3cccc(C(O)C(=O)N(C)CCN(C)C)n3)cc12 (stereo not drawn) ?
**A:** > 1 µM

**Q:** May I ask what GI50 has been recorded for COc1ccccc1-c1n[nH]c2ncc(-c3cccc(C(C)C(=O)N(C)CCN(C)C)c3)cc12 (stereo not drawn) ?
**A:** > 1 µM

**Q:** # get_value(readout='GI50', item= "COc1ccccc1-c1n[nH]c2ncc(-c3cccc(C(=O)C(=O)N(C)CCN(C)C)c3)cc12" )
**A:** < 1 µM

###

target_under_test: Ba/F3 cells, ABL1 WT (Homo sapiens, UniProt P00519)
run_description: 96-well XTT cell survival assay, Ba/F3 ABL1 WT
Format: cell-based
experimental_setup: 72 hours, read-out: ABL1 WT XTT [Ba/F3] IC50
Listed here: items and their measured GI50.

Recorded GI50, per entry:
>>> result_value("CN(C)C(=O)C(O)c1cncc(-c2cnc3[nH]cc(-c4ccnn4CC(F)(F)F)c3c2)c1 (stereo not drawn)")
"> 1000 nM"
>>> result_value("CN(C)C(=O)C(O)c1cncc(-c2cnc3[nH]cc(-c4ccc(C#N)cc4)c3c2)c1 (stereo not drawn)")
"> 1000 nM"
>>> result_value("COc1ccccc1-c1n[nH]c2ncc(-c3cccc([C@@H](C)O)c3)cc12")
"< 1000 nM"
>>> result_value("COc1ccccc1-c1n[nH]c2ncc(-c3cccc(C(O)c4ncccc4C(F)(F)F)c3)cc12 (stereo not drawn)")
"> 1000 nM"
>>> result_value("COc1ccccc1-c1c[nH]c2ncc(-c3cccc(C(N)CC(=O)N(C)CCN(C)C)c3)cc12 (stereo not drawn)")
"> 1000 nM"
>>> result_value("COc1ccccc1-c1n[nH]c2ncc(-c3cccc(C(O)C(=O)N(C)C4CCOCC4)c3)cc12 (stereo not drawn)")
"< 1000 nM"
>>> result_value("COc1ccccc1-c1n[nH]c2ncc(-c3cccc(C(=O)C(=O)N(C)C)c3)cc12")
"> 1000 nM"
>>> result_value("CNC(C(=O)N(C)C(C)C)c1cccc(-c2cnc3[nH]nc(-c4ccccc4OC)c3c2)c1 (stereo not drawn)")
"> 1000 nM"

Next:
**Q:** If you can, please state the reported GI50 value of COc1ccccc1-c1n[nH]c2ncc(-c3cccc(C(O)C(=O)N(C)C4CCS(=O)(=O)C4)c3)cc12 (stereo not drawn) .
**A:** < 1000 nM
